target: human GLP1-R (Homo sapiens); assay: GLP1-R internalization assay in HEK293 cells; assay type: cell-based; settings: normalized to maximum concentration of GLP-1 (100%)
Sequence (P43220 24-463): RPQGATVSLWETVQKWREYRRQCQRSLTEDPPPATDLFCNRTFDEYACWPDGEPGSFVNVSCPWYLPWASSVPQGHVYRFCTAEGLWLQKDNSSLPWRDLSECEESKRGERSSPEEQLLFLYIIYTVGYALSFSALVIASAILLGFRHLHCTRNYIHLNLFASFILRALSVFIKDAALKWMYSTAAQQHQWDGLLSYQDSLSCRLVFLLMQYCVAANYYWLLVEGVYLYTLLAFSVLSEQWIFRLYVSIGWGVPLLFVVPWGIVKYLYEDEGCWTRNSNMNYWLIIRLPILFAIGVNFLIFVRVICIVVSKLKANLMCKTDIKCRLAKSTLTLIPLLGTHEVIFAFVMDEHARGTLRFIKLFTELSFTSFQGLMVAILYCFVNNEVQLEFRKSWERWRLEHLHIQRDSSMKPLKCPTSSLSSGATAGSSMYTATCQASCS
Starred links: 1 amine or outer side, 2 acyl side, 3 side chain; linkers in the order of their positions; H or OH if unused. Non-standard residues stand in square brackets, D forms with d. Groups on a side chain read outwards from the residue. *: point of attachment. C20 diacid = O=C(O)CCCCCCCCCCCCCCCCCCC(=O)*; C18 diacid = O=C(O)CCCCCCCCCCCCCCCCC(=O)*; Phe(4-CN) = N#Cc1ccc(C[C@H](N)C(=O)O)cc1; αMePhe(2-F) = C[C@](N)(Cc1ccccc1F)C(=O)O; γGlu = O=C(O)[C@H](CCC(=O)[*:2])N[*:1]; 4Pal = N[C@@H](Cc1ccncc1)C(=O)O; αMeL = CC(C)C[C@](C)(N)C(=O)O; Orn = NCCC[C@H](N)C(=O)O; AEEA = NCCOCCOCC(=O)O; Aib = CC(C)(N)C(=O)O
measured-quantity: Internalization % TOP (%)
Enter your answer as a number in %; do not include the unit.

Answered examples (5):
H-Y[Aib]QGTFTSD[4Pal]S[Orn][αMeL]LDKK([AEEA-γGlu-C18 diacid])AQ[Aib]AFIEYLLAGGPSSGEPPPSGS-NH2 [Example 154]    65.9
H-Y[Aib]QGTFTSDFSK[αMeL]LDKK([AEEA-γGlu-C20 diacid])AQ[Aib]AFIEYLLE[Aib]GPSSGAPPPSGS-NH2 [Example 45]    62.1
H-Y[Aib]QGTFTSDFS[Orn][αMeL]LDKK([AEEA-γGlu-C18 diacid])AQ[Aib]AFIEWLLEGGTSSGAPPPSGT-NH2 [Example 177]    44
H-Y[Aib]QGTFTSDFS[Orn][αMeL]LDKK([AEEA-γGlu-γGlu-C18 diacid])AQ[Aib]AFIEYLLE[Aib]GPSSGAPPPSGT-NH2 [Example 278]    68.6
H-Y[Aib]QGT[αMePhe(2-F)]TSD[Phe(4-CN)]SILLDKQAQK([AEEA-AEEA-γGlu-C20 diacid])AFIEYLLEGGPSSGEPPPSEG-NH2 [Example 321]    92.8

With those in mind, consider the next substance.
## Input Internalization % TOP lookup needed for H-Y[Aib]QGTFTSDFSK[αMeL]LDKK([AEEA-γGlu-C18 diacid])AQ[Aib]AFIEYLLE[Aib]GPSSGAPPPSEG-NH2 [Example 57] , thanks.
## Output 73.1

Taken from patent US20240270821A1.
